As shown below, each of these compounds has a reported CC50 at 24 h value.
# ASSAY_EXPLANATION: in vitro
# CONDITION_CONTEXT: human

Below: 3 compounds and their reported CC50 at 24 h.
CN1C2CCC1CC(=NNc1nc(-c3cc4ccccc4oc3=O)cs1)C2: 42.6 µM
CN1C2CCC1CC(=NNc1nc(-c3ccc(NS(C)(=O)=O)cc3)cs1)C2: > 100 µM
CC(=O)Nc1ccc(-c2csc(NN=C3CC4CCC(C3)N4C)n2)cc1: > 100 µM

## Input Using the record for "CN1C2CCC1CC(=NNc1nc(-c3ccc(N)cc3)cs1)C2" , state its measured CC50 at 24 h.
## Output > 100 µM

====

# Tested on: human breast adenocarcinoma (MDA-MB-231) cell line
# ASSAY_EXPLANATION: MTT cell proliferation assay, MDA-MB-231
# Assay type: cell-based
# CONDITION_CONTEXT: MDA-MB-231, 72 h, read-out: IC50 ± SD MDA-MB-231
EXPERIMENTAL_READOUT: IC50 (µM)
Just the number in µM, nothing appended.

## Input State its IC50 for this molecule: O=C(O)CCCc1ccc(N(CCCl)CCCl)cc1 [Chlorambucil, reference compound]
## Output 4.71

====

Collected melting point values appear next to each entry.

Worked cases, melting point given:
CN1C2CCC1CC(=NNc1nc(-c3ccc(N)cc3)cs1)C2 [Compound 3e]: 85 to 87 °C
CN1C2CCC1CC(=NNc1nc(-c3cc4ccccc4oc3=O)cs1)C2 [Compound 3g]: 110 to 113 °C
CN1C2CCC1CC(=NNc1nc(-c3ccc([N+](=O)[O-])cc3)cs1)C2 [Compound 3d]: 99 to 101 °C
COc1ccc(-c2csc(NN=C3CC4CCC(C3)N4C)n2)cc1 [Compound 3b]: 91 to 93 °C
CC(=O)Nc1ccc(-c2csc(NN=C3CC4CCC(C3)N4C)n2)cc1 [Compound 3h]: 97 to 99 °C

## Input Give recorded melting point. CN1C2CCC1CC(=NNc1nc(-c3ccc(C#N)cc3)cs1)C2 [Compound 3c]
## Output 90 to 92 °C

## Input Please report the measured melting point for CN1C2CCC1CC(=NNc1nc(-c3ccc(NS(C)(=O)=O)cc3)cs1)C2 [Compound 3f]
## Output 98 to 100 °C

====

# ASSAY_EXPLANATION: in vitro
EXPERIMENTAL_READOUT: CC50 at 24 h (µM)
Expressed in µM, but write only the number.

CN1C2CCC1CC(=NNc1nc(-c3ccc(NS(C)(=O)=O)cc3)cs1)C2: 98.7

## Input Read off the recorded CC50 at 24 h for "CN1C2CCC1CC(=NNc1nc(-c3cc4ccccc4oc3=O)cs1)C2"
## Output 35.3

====

# Tested on: A549 cells
# ASSAY_EXPLANATION: Annexin V-FITC/PI cell death by flow cytometry, A549
# Type: cell-based, human
# CONDITION_CONTEXT: Homo sapiens, A549, 48 h; read-out: IC50 for apoptosis
EXPERIMENTAL_READOUT: IC50 (µM)
Quick note: give the figure in µM, leave out the unit.

## Input In one line, give reported IC50 of the entry CN1C2CCC1CC(=NNc1nc(-c3ccc(I)cc3)cs1)C2 [Compound 3a] .
## Output 17.4

The reported numbers originate from paper PMC7731314.
